Just for reference, patent US8354454B2 is where these values come from.

assay: physchem; conditions: buffer, pH 7.68

[
  {
    "compound_smiles": "COc1cc(F)c(C(C)C)cc1-c1ccc(C(F)(F)F)cc1CN[C@@H](C)[C@H](OC(=O)OC(COP(=O)(O)O)COP(=O)(O)O)c1cc(C(F)(F)F)cc(C(F)(F)F)c1",
    "half-life": "~2.5 h"
  }
]
